List of IC50 tested on Cholinesterase (Homo sapiens, UniProt P06276).
Sequence (P06276 whole entry): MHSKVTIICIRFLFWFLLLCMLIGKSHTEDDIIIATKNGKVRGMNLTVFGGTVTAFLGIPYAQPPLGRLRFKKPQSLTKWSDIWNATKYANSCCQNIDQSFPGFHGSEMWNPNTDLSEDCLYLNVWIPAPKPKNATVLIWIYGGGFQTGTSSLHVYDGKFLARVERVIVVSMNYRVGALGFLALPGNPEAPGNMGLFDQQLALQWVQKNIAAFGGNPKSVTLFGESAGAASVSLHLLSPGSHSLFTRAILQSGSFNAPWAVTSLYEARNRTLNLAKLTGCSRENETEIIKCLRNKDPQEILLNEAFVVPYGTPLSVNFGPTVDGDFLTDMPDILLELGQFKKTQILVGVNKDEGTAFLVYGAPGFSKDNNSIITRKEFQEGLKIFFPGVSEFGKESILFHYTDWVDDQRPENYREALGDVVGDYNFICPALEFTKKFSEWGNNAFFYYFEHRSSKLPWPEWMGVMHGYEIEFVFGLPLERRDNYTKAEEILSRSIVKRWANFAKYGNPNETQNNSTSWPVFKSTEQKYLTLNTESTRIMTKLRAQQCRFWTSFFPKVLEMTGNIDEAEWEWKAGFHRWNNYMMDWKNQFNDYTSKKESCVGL
Parameter measured: IC50

* COC1=CC2CCC1C1Oc3ccccc3C(=O)[C@]21C#N (stereo not given in full) | > 2000 nM
* CO[C@@H]1C=CC[C@@H]2Oc3ccccc3C(=O)[C@@]21C#N | > 2000 nM
* CO[C@@H]1C=CC[C@@H]2Oc3ccc(F)cc3C(=O)[C@@]21C#N | > 2000 nM
* COc1ccc2c(c1)C(=O)[C@]1(C#N)C(OC)C=CC[C@@H]1O2 (stereo not given in full) | 1410 nM
* COC1CC(=O)C[C@@H]2Oc3ccccc3C(=O)[C@]12C#N (stereo not given in full) | > 2000 nM

====

Documented pIC50 across a set of molecules
# Test details: In vitro inhibitory activity against acetylcholinesterase
pIC50: −log10 of the molar value.
Parameter measured: pIC50

- CO[C@@H]1C=CC[C@@H]2Oc3ccc(Cl)cc3C(=O)[C@@]21C#N: 6.62
- COc1ccc2c(c1)C(=O)[C@]1(C#N)C(OC)C=CC[C@@H]1O2 (stereo not given in full): 6.21
- N#C[C@]12C(=O)c3ccccc3OC1C1C=CC2CC1 (stereo not given in full): 6.24
- CO[C@@H]1C=CC[C@@H]2Oc3ccc(F)cc3C(=O)[C@@]21C#N: 6.55
- COC1C=CC[C@@H]2Oc3ccc(C)cc3C(=O)[C@]12C#N (stereo not given in full): 6.10
- CO[C@@H]1C=CC[C@@H]2Oc3ccccc3C(=O)[C@@]21C#N: 5.95
- COC1CC(=O)C[C@@H]2Oc3ccccc3C(=O)[C@]12C#N (stereo not given in full): 6.49
- CO[C@@H]1C=CC[C@@H]2Oc3ccc(Br)cc3C(=O)[C@@]21C#N: 5.85

====

A short record of IC50 observed with UniProt P06276 follows.
Parameter measured: IC50 (nM)

• CO[C@@H]1C=CC[C@@H]2Oc3ccc(Cl)cc3C(=O)[C@@]21C#N = 270
• COC1C=C(O[Si](C)(C)C(C)(C)C)C[C@@H]2Oc3ccccc3C(=O)[C@]12C#N (stereo not given in full) = 350
• CO[C@@H]1C=CC[C@@H]2Oc3ccc(Br)cc3C(=O)[C@@]21C#N = 730
